Target: Integrin alpha-V/beta-3 (Homo sapiens, UniProt P05106+P06756)
Sequence (P05106 27-788 limits assumed): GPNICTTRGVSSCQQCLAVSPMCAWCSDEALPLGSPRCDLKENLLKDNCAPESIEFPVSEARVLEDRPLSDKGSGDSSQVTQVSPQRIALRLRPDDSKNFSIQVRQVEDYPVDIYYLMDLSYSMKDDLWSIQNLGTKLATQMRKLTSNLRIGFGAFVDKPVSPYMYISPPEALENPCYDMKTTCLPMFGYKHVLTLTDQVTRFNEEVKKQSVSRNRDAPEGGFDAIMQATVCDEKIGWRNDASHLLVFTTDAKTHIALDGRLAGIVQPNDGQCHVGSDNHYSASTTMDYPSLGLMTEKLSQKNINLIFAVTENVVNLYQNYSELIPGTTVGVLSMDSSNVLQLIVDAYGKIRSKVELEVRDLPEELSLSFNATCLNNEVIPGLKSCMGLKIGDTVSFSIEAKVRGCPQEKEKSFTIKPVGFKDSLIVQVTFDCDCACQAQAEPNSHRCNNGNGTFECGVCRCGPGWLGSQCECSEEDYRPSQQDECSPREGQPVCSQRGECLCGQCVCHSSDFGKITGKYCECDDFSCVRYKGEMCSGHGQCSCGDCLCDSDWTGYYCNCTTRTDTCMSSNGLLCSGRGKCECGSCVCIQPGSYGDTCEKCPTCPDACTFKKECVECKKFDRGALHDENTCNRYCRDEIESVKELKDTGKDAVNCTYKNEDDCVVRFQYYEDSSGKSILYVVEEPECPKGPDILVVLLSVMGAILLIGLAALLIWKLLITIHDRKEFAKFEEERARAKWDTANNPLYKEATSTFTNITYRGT
Sequence (P06756 31-889 limits assumed): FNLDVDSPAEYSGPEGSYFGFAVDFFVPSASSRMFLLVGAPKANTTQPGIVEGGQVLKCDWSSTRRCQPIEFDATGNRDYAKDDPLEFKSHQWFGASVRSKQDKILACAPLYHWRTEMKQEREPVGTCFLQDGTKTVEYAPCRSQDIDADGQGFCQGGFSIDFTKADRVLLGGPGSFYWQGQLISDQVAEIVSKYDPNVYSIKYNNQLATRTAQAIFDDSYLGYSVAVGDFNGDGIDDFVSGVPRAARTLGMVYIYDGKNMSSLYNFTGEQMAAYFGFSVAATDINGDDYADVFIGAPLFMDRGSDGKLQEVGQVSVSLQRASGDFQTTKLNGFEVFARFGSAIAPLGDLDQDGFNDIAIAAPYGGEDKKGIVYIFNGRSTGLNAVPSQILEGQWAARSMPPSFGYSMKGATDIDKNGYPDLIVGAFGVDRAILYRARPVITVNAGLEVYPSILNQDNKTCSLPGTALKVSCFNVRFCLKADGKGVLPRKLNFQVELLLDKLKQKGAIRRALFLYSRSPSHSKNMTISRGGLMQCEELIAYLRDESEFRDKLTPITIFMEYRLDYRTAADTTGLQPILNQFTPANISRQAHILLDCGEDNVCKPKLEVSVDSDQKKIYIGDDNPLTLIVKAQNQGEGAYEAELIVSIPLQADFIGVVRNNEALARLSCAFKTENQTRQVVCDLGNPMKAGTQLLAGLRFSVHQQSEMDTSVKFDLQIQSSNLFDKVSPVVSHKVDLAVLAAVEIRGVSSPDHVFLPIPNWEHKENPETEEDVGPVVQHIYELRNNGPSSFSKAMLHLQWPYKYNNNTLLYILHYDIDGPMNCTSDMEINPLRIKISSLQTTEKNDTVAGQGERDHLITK
Sequence (P06756 891-1048 limits assumed): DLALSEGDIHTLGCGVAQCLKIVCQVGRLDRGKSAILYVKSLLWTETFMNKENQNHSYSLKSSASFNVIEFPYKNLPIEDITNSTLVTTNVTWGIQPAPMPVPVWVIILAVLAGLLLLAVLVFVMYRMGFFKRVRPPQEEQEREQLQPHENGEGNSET
Experiment: Binding affinity to human integrin alphaVbeta3 incubated for 1 hr by ELISA based solid phase integrin binding assay
REPORTED PROPERTY: IC50
Please answer in the form of a number followed by its unit of measurement.

CC(C)[C@@H]1C(=O)N[C@@H](CCCNC(=N)N)C(=O)NCC(=O)N[C@@H](CC(=O)O)C(=O)N[C@@H](Cc2c[nH]c3c(Br)cccc23)C(=O)N1C ... 311 nM

# batch: return IC50 for each of the 2 compounds below
1. COc1ccc(-c2cccc3c(C[C@H]4NC(=O)[C@H](CC(=O)O)NC(=O)CNC(=O)[C@H](CCCNC(=N)N)NC(=O)[C@H](C(C)C)NC4=O)c[nH]c23)cc1
2. CC(C)[C@@H]1NC(=O)[C@@H](Cc2c[nH]c3c(Br)cccc23)NC(=O)[C@H](CC(=O)O)NC(=O)CNC(=O)[C@H](CCCNC(=N)N)NC1=O

Data returned:
["0.74 nM", "0.62 nM"]

----------
For each of the molecules below, state its IC50.
Biological target: Integrin alpha-V/beta-3 (Homo sapiens, UniProt P05106+P06756)
Assay: Binding affinity to human integrin alphaVbeta3 incubated for 1 hr by ELISA based solid phase integrin binding assay
Numbers only, in nM.

Completed entries (count: 2):
CC(C)[C@H]1C(=O)N[C@@H](CCCNC(=N)N)C(=O)NCC(=O)N[C@@H](CC(=O)O)C(=O)N[C@H](Cc2c[nH]c3c(Br)cccc23)C(=O)N1C ... 1.37
CC(C)[C@H]1NC(=O)[C@H](Cc2c[nH]c3c(Br)cccc23)NC(=O)[C@H](CC(=O)O)NC(=O)CNC(=O)[C@H](CCCNC(=N)N)NC1=O ... 0.53

# batch: return IC50 for each of the 2 molecules below
1. CC(C)[C@@H]1NC(=O)[C@@H](Cc2c[nH]c3c(F)cccc23)NC(=O)[C@H](CC(=O)O)NC(=O)CNC(=O)[C@H](CCCNC(=N)N)NC1=O
2. CC(C)[C@@H]1NC(=O)[C@@H](Cc2c[nH]c3ccccc23)NC(=O)[C@H](CC(=O)O)NC(=O)CNC(=O)[C@H](CCCNC(=N)N)NC1=O

Data returned:
1: 0.35; 2: 1.15

Data request: Which IC50 value is on record for CC(C)[C@@H]1NC(=O)[C@@H](Cc2c[nH]c3c(-c4c5ccccc5cc5ccccc45)cccc23)NC(=O)[C@H](CC(=O)O)NC(=O)CNC(=O)[C@H](CCCNC(=N)N)NC1=O ?
Data returned: 0.59

----------
Target: Integrin alpha-5/beta-1 (Homo sapiens, UniProt P05556+P08648)
Sequence (P05556 21-798 limits assumed): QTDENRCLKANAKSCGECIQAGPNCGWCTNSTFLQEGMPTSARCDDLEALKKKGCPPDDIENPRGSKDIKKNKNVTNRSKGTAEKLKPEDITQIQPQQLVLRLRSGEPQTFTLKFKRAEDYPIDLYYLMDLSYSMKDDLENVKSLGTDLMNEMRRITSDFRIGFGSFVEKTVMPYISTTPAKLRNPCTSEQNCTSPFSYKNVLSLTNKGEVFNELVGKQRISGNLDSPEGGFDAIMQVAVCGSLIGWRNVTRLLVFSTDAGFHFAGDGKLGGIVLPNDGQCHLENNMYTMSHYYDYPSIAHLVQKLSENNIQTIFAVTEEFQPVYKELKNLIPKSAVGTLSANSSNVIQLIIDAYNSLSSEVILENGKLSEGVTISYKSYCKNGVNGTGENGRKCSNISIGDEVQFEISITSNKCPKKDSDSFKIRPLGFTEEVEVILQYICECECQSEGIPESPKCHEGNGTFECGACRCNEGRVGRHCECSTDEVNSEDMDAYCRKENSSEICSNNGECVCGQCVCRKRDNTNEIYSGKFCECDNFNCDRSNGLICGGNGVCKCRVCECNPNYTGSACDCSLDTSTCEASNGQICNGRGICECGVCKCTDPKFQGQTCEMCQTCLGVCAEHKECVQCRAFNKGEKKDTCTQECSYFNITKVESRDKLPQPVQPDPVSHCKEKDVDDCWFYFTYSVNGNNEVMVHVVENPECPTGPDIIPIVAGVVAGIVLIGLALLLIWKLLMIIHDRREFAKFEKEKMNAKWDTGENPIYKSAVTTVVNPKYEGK
Sequence (P08648 42-894 limits assumed): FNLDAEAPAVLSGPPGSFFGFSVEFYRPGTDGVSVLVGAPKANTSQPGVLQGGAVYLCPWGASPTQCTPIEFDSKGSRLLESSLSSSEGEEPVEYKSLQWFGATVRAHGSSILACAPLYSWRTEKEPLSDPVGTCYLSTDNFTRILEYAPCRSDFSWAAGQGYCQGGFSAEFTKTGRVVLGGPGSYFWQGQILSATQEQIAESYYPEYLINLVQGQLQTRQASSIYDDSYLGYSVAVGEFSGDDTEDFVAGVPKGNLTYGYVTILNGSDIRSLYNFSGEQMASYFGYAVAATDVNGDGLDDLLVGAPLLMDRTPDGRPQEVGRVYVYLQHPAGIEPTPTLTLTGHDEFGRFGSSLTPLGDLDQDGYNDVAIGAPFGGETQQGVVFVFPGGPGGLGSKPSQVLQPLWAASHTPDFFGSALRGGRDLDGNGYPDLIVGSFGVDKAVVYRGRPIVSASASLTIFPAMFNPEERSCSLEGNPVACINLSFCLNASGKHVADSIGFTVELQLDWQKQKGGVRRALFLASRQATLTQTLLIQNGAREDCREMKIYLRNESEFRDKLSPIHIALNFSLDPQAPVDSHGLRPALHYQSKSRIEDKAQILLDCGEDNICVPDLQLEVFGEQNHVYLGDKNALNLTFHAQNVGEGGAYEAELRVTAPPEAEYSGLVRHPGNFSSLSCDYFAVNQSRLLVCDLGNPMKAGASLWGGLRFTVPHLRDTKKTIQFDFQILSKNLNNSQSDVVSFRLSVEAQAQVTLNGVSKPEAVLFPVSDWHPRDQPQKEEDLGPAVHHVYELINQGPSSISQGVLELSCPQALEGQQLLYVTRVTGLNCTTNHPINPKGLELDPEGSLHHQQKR
Sequence (P08648 895-1049 limits assumed): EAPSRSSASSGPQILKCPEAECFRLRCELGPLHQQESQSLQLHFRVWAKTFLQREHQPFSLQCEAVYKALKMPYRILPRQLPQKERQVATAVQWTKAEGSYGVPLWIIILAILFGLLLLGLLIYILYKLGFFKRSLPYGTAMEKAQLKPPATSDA
Assay: Binding affinity to human integrin alpha5beta1 incubated for 1 hr by ELISA based solid phase integrin binding assay
For each of the compounds below, state its IC50.
One number for each entry, in nM.

Completed entries (count: 4):
CC(C)[C@H]1NC(=O)[C@H](Cc2c[nH]c3c(Br)cccc23)NC(=O)[C@H](CC(=O)O)NC(=O)CNC(=O)[C@H](CCCNC(=N)N)NC1=O ... 472
CC(C)[C@@H]1NC(=O)[C@@H](Cc2c[nH]c3c(-c4c5ccccc5cc5ccccc45)cccc23)NC(=O)[C@H](CC(=O)O)NC(=O)CNC(=O)[C@H](CCCNC(=N)N)NC1=O ... 471
CC(C)[C@@H]1NC(=O)[C@@H](Cc2c[nH]c3c(F)cccc23)NC(=O)[C@H](CC(=O)O)NC(=O)CNC(=O)[C@H](CCCNC(=N)N)NC1=O ... 58.3
CC(C)[C@@H]1NC(=O)[C@@H](Cc2c[nH]c3c(Cl)cccc23)NC(=O)[C@H](CC(=O)O)NC(=O)CNC(=O)[C@H](CCCNC(=N)N)NC1=O ... 91.3

For the next question, use this compound.
Data request: Which IC50 value is on record for CC(C)[C@@H]1NC(=O)[C@@H](Cc2c[nH]c3c(-c4ccc(C(=O)O)cc4)cccc23)NC(=O)[C@H](CC(=O)O)NC(=O)CNC(=O)[C@H](CCCNC(=N)N)NC1=O ?
Data returned: 22
